Below, each entry is listed with its recorded IC50.
Target: FAK (Homo sapiens, UniProt Q05397)
Sequence (Q05397 whole entry): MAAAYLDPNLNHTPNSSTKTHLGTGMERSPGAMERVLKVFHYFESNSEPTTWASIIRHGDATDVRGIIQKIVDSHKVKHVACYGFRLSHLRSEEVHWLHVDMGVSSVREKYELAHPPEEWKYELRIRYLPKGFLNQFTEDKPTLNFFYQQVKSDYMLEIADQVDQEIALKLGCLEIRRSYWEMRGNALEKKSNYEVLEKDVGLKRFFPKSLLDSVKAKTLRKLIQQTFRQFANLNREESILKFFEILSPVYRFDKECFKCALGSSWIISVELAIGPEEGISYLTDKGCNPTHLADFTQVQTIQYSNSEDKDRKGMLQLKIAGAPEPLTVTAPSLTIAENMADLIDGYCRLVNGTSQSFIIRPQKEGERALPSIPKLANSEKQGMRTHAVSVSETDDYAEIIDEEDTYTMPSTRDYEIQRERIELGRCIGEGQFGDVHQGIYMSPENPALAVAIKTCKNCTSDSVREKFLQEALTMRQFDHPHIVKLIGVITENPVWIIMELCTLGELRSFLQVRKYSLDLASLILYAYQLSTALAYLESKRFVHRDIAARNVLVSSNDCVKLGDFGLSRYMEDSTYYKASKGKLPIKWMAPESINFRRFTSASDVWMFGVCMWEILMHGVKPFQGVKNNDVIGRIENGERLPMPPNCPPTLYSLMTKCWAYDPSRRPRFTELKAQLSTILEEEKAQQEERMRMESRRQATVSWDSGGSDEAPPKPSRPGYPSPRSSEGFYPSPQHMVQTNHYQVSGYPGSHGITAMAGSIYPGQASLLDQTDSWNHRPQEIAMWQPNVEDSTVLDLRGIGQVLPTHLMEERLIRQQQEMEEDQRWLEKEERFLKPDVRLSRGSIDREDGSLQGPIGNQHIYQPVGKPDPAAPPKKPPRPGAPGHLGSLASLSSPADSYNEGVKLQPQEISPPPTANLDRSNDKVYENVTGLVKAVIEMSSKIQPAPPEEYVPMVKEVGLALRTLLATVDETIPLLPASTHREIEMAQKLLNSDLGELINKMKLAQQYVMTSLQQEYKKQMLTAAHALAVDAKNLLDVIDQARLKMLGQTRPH
Assay: Cell-based capture ELISA for inhibition of FAK autophosphorylation [pY397] in U87MG cells
Settings: Mean FAK Cell Mechanistic IC50 + 50% mP U87MG, + 50% mouse plasma
Reported endpoint: IC50

Molecule: CCOP(=O)(Cc1ccc(Nc2ncc(C(F)(F)F)c(Nc3ccccc3C(=O)O)n2)c(OC)c1)OCC
Assayed system: FAK (Homo sapiens, UniProt Q05397)
Value reported: 1000 to 10000 nM
//
Molecule: CCOP(=O)(Cc1ccc(Nc2ncc(C(F)(F)F)c(Nc3c4c(cc[n+]3[O-])CN(C)C4=O)n2)c(OC)c1)OCC
Assayed system: FAK (Homo sapiens, UniProt Q05397)
Value reported: 1000 to 10000 nM
//
Molecule: CCOP(=O)(Cc1ccc(Nc2ncc(C(F)(F)F)c(Nc3nccc4c3C(=O)N(C)C4)n2)c(OC)c1)OCC
Assayed system: FAK (Homo sapiens, UniProt Q05397)
Value reported: 1000 to 10000 nM
//
Molecule: CCOP(=O)(Cc1ccc(Nc2ncc(C(F)(F)F)c(Nc3c(F)cccc3C(=O)NC)n2)c(OC)c1)OCC
Assayed system: FAK (Homo sapiens, UniProt Q05397)
Value reported: < 1000 nM
//
Molecule: CCOP(=O)(CC)Cc1ccc(Nc2ncc(C(F)(F)F)c(Nc3ccc([C@H]4CC[C@H](O)CC4)c4c3C(=O)N(C)C4)n2)cc1 (some centres unmarked)
Assayed system: FAK (Homo sapiens, UniProt Q05397)
Value reported: < 1000 nM

---

Target: FAK (Homo sapiens, UniProt Q05397)
Assay: Cell-based capture ELISA for inhibition of FAK autophosphorylation [pY397] in MiaPaCa2 cells
Conditions: MIA-PaCa2 cells, + 50% human plasma; read-out: Mean FAK Cell Mechanistic IC50 + 50% hP MIA-PaCa2
pIC50: −log10 of the molar value.
Reported endpoint: pIC50

Molecule: CNC(=O)c1ccccc1Nc1nc(Nc2cccc(CP(C)(C)=O)c2)ncc1C(F)(F)F
Reported endpoint: pIC50
Value reported: > 6.00

Molecule: CCOP(=O)(Cc1ccc(Nc2ncc(C(F)(F)F)c(Nc3ccc(-c4cnn(C)c4)c4c3C(=O)N(C)C4)n2)c(OC)c1)OCC
Reported endpoint: pIC50
Value reported: > 6.00

Molecule: CCP(=O)(CC)Cc1cccc(Nc2ncc(C(F)(F)F)c(Nc3ccccc3C(=O)NC)n2)c1
Reported endpoint: pIC50
Value reported: > 6.00

Molecule: CNC(=O)c1ccccc1Nc1nc(Nc2ccc(CP(C)(C)=O)cc2)ncc1C(F)(F)F
Reported endpoint: pIC50
Value reported: > 6.00

Molecule: CCOP(C)(=O)Cc1ccc(Nc2ncc(C(F)(F)F)c(Nc3ccc(C#CCO)c4c3C(=O)N(C)C4)n2)cc1 (stereo not shown)
Reported endpoint: pIC50
Value reported: > 6.00

Molecule: CCOP(=O)(Cc1cccc(Nc2ncc(C(F)(F)F)c(NCc3cccnc3N(C)S(C)(=O)=O)n2)c1)OCC
Reported endpoint: pIC50
Value reported: 5.00 to 6.00

Molecule: CN(c1ncccc1CNc1nc(Nc2ccc(CP3(=O)OCCCO3)cc2)ncc1C(F)(F)F)S(C)(=O)=O
Reported endpoint: pIC50
Value reported: > 6.00

Molecule: CCOP(C)(=O)Cc1ccc(Nc2ncc(C(F)(F)F)c(Nc3ccc(N4CCC(O)C4)c4c3C(=O)N(C)C4)n2)cc1 (stereo not shown)
Reported endpoint: pIC50
Value reported: > 6.00

Molecule: CCOP(=O)(Cc1ccc(Nc2ncc(C(F)(F)F)c(Nc3ccc(Br)c4c3C(=O)N(C)C4)n2)c(OC)c1)OCC
Reported endpoint: pIC50
Value reported: 5.00 to 6.00

Molecule: CC(C)P(=O)(Cc1cccc(Nc2ncc(C(F)(F)F)c(NCc3cccnc3N(C)S(C)(=O)=O)n2)c1)C(C)C
Reported endpoint: pIC50
Value reported: > 6.00
